Data origin, for the record: patent US12590099B2

Exercise: for every item that follows, state its recorded IC50.
# tgt: Recombinant human HDAC8 (Homo sapiens, UniProt Q9BY41)
# Construct: purchased Enzo Life Sciences BML-SE145-0100
# Sequence (Q9BY41 whole entry): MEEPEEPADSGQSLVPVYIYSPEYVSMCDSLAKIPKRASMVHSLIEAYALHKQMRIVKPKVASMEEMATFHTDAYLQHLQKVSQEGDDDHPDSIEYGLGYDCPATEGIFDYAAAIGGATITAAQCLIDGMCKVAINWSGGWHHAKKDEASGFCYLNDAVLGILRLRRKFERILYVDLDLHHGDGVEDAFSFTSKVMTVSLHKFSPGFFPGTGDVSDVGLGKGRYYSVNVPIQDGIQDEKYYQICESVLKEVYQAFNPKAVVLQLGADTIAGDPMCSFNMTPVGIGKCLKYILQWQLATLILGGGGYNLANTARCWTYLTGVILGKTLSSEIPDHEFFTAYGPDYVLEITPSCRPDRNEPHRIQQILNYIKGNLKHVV
# assay protocol: Human HDAC enzyme inhibitor Fluor-de-Lys assay, HDAC8
# Format: biochemical
# run conditions: recombinant human HDAC8, Fluor-de-Lys assay
# Description: Human HDAC Enzyme Inhibitor Fluor-De-Lys Assay Recombinant human HDAC8 (BML-SE145-0100) and HDAC10 (BML-SE559-0050) enzymes, HDAC substrates BML-KI104 and BML-KI178, and HDAC developer solutions BML-KI105 and BML-KI176 were purchased from Enzo Life Sciences. […] The histone deacetylase activities of HDAC1, HDAC2, HDAC3, HDAC6, and HDAC8 were measured in modified FLUOR DE LYS assays in 384-well format. […] The released AMC is then detected by its fluorescence. […]
Numbers only, in nM.

Enquiry: // lookup IC50 | system=Recombinant human HDAC8 (Homo sapiens, UniProt Q9BY41) | key= CCC(=O)CCCCC[C@H](NC(=O)[C@H]1CC[C@]2(CC1)OC(=O)c1cccnc12)c1ncc(-c2ccccc2)[nH]1
Return: 2960

Enquiry: // lookup IC50 | system=Recombinant human HDAC8 (Homo sapiens, UniProt Q9BY41) | key= CCC(=O)CCCCC[C@H](NC(=O)[C@H]1CC[C@@]2(CC1)OC(=O)c1ncccc12)c1ncc(-c2ccccc2)[nH]1
Return: 8180

Enquiry: // lookup IC50 | system=Recombinant human HDAC8 (Homo sapiens, UniProt Q9BY41) | key= CCC(=O)CCCCC[C@H](NC(=O)[C@H]1CC12CCN(C)CC2)c1ncc(-c2ccc(F)cc2)[nH]1
Return: 10800

Enquiry: // lookup IC50 | system=Recombinant human HDAC8 (Homo sapiens, UniProt Q9BY41) | key= CCC(=O)CCCCC[C@H](NC(=O)[C@H]1CC12CCN(C)CC2)c1ncc(-c2cn(C)c3ccccc23)[nH]1
Return: 1140

Enquiry: // lookup IC50 | system=Recombinant human HDAC8 (Homo sapiens, UniProt Q9BY41) | key= CCC(=O)CCCCC[C@H](NC(=O)[C@H]1CCC12CCN(CC)CC2)c1ncc(-c2cc3ccccc3nc2OC)[nH]1
Return: 2930

Okay, next one:
Enquiry: // lookup IC50 | system=Recombinant human HDAC8 (Homo sapiens, UniProt Q9BY41) | key= CCC(=O)CCCCC[C@H](NC(=O)[C@H]1CC12CCN(C)CC2)c1ncc(-c2cnc(-n3cc(C)cn3)nc2)[nH]1
Return: 10400

----------
Exercise: for every item that follows, state its recorded log10 of IC50.
# tgt: Recombinant human HDAC2 (Homo sapiens)
# Construct: Full length human HDAC2-FLAG was expressed in baculovirus infected Sf9 cells; FLAG (C); made in house; host or cells: Sf9 (baculovirus)
# Sequence (Q92769 whole entry): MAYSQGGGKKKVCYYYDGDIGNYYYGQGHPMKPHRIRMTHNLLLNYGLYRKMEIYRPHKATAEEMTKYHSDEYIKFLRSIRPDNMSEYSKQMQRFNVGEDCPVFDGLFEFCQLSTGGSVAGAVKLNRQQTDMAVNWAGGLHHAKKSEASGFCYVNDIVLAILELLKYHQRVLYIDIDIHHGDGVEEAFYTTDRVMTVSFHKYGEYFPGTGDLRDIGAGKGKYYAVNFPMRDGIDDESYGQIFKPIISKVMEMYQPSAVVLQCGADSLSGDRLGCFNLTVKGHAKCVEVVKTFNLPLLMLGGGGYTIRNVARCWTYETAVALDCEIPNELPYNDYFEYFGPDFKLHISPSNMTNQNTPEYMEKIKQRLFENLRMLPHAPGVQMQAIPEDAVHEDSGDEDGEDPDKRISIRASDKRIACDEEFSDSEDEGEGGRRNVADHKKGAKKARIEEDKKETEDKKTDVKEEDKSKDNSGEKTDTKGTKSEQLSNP
# assay protocol: Human HDAC enzyme inhibitor Fluor-de-Lys assay, HDAC2
# Type: biochemical
# run conditions: recombinant human HDAC2, Fluor-de-Lys assay
Values reflect log10 of reported IC50 (µM).

# count of solved cases: 3
Enquiry: I'd like to know its log10 of IC50. The compound in question is CCC(=O)CCCCC[C@H](NC(=O)[C@H]1CC12CCN(C)CC2)c1ncc(-c2cnc3c(c2)ncn3C)[nH]1
Return: -0.55

Enquiry: I'd like to know its log10 of IC50. The compound in question is CCC(=O)CCCCC[C@H](NC(=O)[C@H]1CC12CCN(C)CC2)c1ncc(-c2ccc3c(c2)c2ccccc2n3C)[nH]1
Return: -1.91

Enquiry: I'd like to know its log10 of IC50. The compound in question is CCC(=O)CCCCC[C@H](NC(=O)C1=NOC2(CCN(C(C)=O)CC2)C1)c1ncc(-c2ccccc2)[nH]1
Return: -0.49

Consider the following items and state reported log10 of IC50 for each.
1. CCC(=O)CCCCC[C@H](NC(=O)C1CC12CCN(CC)CC2)c1nc(-c2ccc(F)cc2)[nH]c1-c1cccs1 (some centres unmarked)
2. CCC(=O)CCCCC[C@H](NC(=O)C1=NOC2(CCN(C)CC2)C1)c1ncc(-c2ccc(-c3cnccn3)cc2OC)o1
3. CCC(=O)CCCCC[C@H](NC(=O)[C@H]1CC12CCN(C)CC2)c1ncc(-c2ccc(F)cc2)[nH]1
4. CCC(=O)CCCCC[C@H](NC(=O)CC1CC2(C1)CN(C)C2)c1ncc(-c2cc3ccccc3nc2O)[nH]1
5. CCC(=O)CCCCC[C@H](NC(=O)[C@H]1CC12CCN(C)CC2)c1ncc(-c2ccnc(N3CCOCC3)c2F)[nH]1
6. CCC(=O)CCCCCC(NC(=O)C1CC12CCN(CC)CC2)c1nc(-c2ccc(F)cc2)[nH]c1-c1ccnn1C (centres unmarked)
7. CCCC(=O)CCCCC[C@H](N)c1ncc(-c2cc3ccc(C)nc3cc2OC)[nH]1

Return:
1. -0.73
2. -1.57
3. -0.91
4. -2.05
5. -0.99
6. -0.95
7. -0.52

Consider the following items and state reported log10 of IC50 for each.
1. CCC(=O)CCCCC[C@H](NC(=O)C1=NOC2(CCN(C)CC2)C1)c1ncc(-c2cc3ccc(N(C)C)nc3cc2OC)o1
2. CCC(=O)CCCCC[C@H](NC(=O)C1=NOC2(CCN(C(=O)OC)CC2)C1)c1ncc(-c2ccccc2)[nH]1
3. CCC(=O)CCCCC[C@H](NC(=O)C1=NOC2(CCN(CC)CC2)C1)c1ncc(-c2cc3ccc(=O)n(C)c3cc2OC)o1
4. CCC(=O)CCCCC[C@H](NC(=O)C1=NOC2(CCN(C)CC2)C1)c1nnc(-c2cc3ccccc3nc2OC)o1

Return:
1: -2.18; 2: -0.20; 3: -1.91; 4: -1.38
